TARGET_OR_TEST_SYSTEM: GHS-R (Homo sapiens)
TEST: GHS-R antagonist activity (Ki) in a cell based assay
READOUT_LABEL: Ki

Look over these answered cases.
CCN(CC)CCS(=O)(=O)N[C@H](CCc1ccccc1)c1nc(Cc2ccccc2F)no1; 100 to 500 nM
CCN(CC)CCS(=O)(=O)N[C@H](CCc1ccccc1)c1nc(-c2c(OC)cccc2OC)no1; 100 to 500 nM
CCN(CC)CCCS(=O)(=O)N[C@H](CCc1ccccc1)c1nc(-c2ccc3sccc3c2)n[nH]1; < 100 nM
CCN(CC)CCCS(=O)(=O)N[C@H](CCc1ccccc1)c1nc(-c2cccnc2)no1; 100 to 500 nM
CCN(CC)CCCS(=O)(=O)N[C@H](CCc1ccccc1)c1nc(-c2ccc(OC)c(C#N)c2)n[nH]1; < 100 nM
CCN(CC)CCS(=O)(=O)N[C@H](CCc1ccccc1)c1nc(-c2ccc(OC)cc2)no1; ≥ 1000 nM
CCN(CC)CCCS(=O)(=O)N[C@H](CCc1ccccc1)c1nc(-c2ccccc2C)no1; < 100 nM
CCN(CC)CCS(=O)(=O)N[C@H](CCc1ccccc1)c1nc(Cc2cccc(Br)c2)no1; < 100 nM

query: Name the reported Ki value associated with the compound "CCN(CC)CCCS(=O)(=O)NCc1nc(Cc2ccc(Br)cc2)no1"
result: 100 to 500 nM

query: Data request, read-out Ki, for CCN(CC)C1CCC(S(=O)(=O)N[C@H](CCc2ccccc2)c2nnc(-c3ccc(F)cc3)[nH]2)CC1 (stereo partly drawn)
result: 100 to 500 nM

query: Look up Ki: "CCN(CC)CCS(=O)(=O)N[C@H](CCc1ccccc1)c1nc(-c2c(Cl)cccc2Cl)no1"
result: 100 to 500 nM

query: What measured Ki goes with "CCN(CC)CCCS(=O)(=O)N[C@H](CCc1ccccc1)c1nc(-c2ccc(C)cc2)n[nH]1" ?
result: 100 to 500 nM

query: Look up Ki: "CCN(CC)CCCS(=O)(=O)N1CC[C@H]1c1nc(-c2ccc(OC)cc2)no1"
result: < 100 nM

query: Ki for "CCN(CC)CCCS(=O)(=O)N[C@H](CCc1ccccc1)c1nc(Cc2ccc(OC)cc2)no1" ?
result: < 100 nM

query: Given "CCN(CC)CCCS(=O)(=O)N[C@H](CCc1ccccc1)c1nc(-c2cccc(C)c2)n[nH]1" , state its recorded Ki.
result: < 100 nM

query: Given the entry "CCN(CC)CCCS(=O)(=O)N[C@H](COCc1ccccc1)c1nc(-c2c(Cl)cccc2Cl)no1" , report its measured Ki.
result: < 100 nM

query: Data request, read-out Ki, for "CCN(CC)CCCS(=O)(=O)N[C@H](CCc1ccccc1)c1nc(Cc2ccccc2)no1"
result: 100 to 500 nM

query: Endpoint output: Ki of "CCN(CC)CCCS(=O)(=O)N[C@@H](CC(C)C)c1nc(-c2ccc(OC)cc2)n[nH]1" . Value?
result: 100 to 500 nM

---

TARGET_OR_TEST_SYSTEM: GHS-R (Homo sapiens)
TEST: GHS-R antagonist activity (Ki) in a cell based assay
pKi: −log10 of the molar value.
Each entry below lists one item and its recorded pKi value.

# example entries with known answers
CCN(CC)CCCS(=O)(=O)N[C@H](CCc1ccccc1)c1nc(-c2ccc(OC(F)(F)F)cc2)n[nH]1 [Compound 106]; > 7.00
CCN(CC)CCCS(=O)(=O)N[C@H](CCc1ccccc1)c1nc(Cc2ccc3c(c2)OCO3)no1 [Compound 55]; > 7.00
CCN(CC)CCCS(=O)(=O)N[C@H](COCc1ccccc1)c1nc(-c2ncccc2C)no1 [Compound 34]; 6.00 to 6.30
CCN(CC)CCS(=O)(=O)N[C@H](CCc1ccccc1)c1nc(Cc2ccc(Br)cc2)no1 [Compound 84]; 6.30 to 7.00

query: What pKi value was documented for this compound, CCN(CC)CCS(=O)(=O)N[C@H](CCc1ccccc1)c1nc(-c2cccnc2Cl)no1 [Compound 54] ?
result: 6.30 to 7.00

query: Could you tell me which pKi is on file for CCN(CC)CCCS(=O)(=O)N[C@H](CCc1ccccc1)c1nc(CCc2ccccc2Cl)no1 [Compound 101] ?
result: 6.30 to 7.00

query: Name the reported pKi value associated with the compound CCN(CC)CCCS(=O)(=O)N[C@H](CCc1ccccc1)c1nc(Cc2ccccc2F)no1 [Compound 72]
result: > 7.00

query: Recorded pKi for CCN(CC)CCS(=O)(=O)N[C@H](CCc1ccccc1)c1nc(-c2cnccc2C)no1 [Compound 77] , please?
result: ≤ 6.00

---

TARGET_OR_TEST_SYSTEM: UniProt Q92847
TEST: GHS-R antagonist activity (Ki) in a cell based assay
pKi: −log10 of the molar value.
READOUT_LABEL: pKi

query: I have this molecule here, "CCN(CC)CCCS(=O)(=O)N[C@H](CCc1ccccc1)c1nc(-c2ccc3c(c2)OCO3)n[nH]1" , and I need its recorded pKi.
result: > 7.00

query: # input molecule: "CCN(CC)CCS(=O)(=O)N[C@H](CCc1ccccc1)c1nc(Cc2c(Cl)cccc2Cl)no1" ; wanted: its pKi
result: > 7.00

query: I would be grateful if you could share the reported pKi for "CCN(CC)CCCS(=O)(=O)N[C@H](CCc1ccccc1)c1nc(-c2c(F)cc(F)cc2F)n[nH]1" .
result: > 7.00

query: Could you share which pKi value was measured for "CCN(CC)CCCS(=O)(=O)N[C@H](CCc1ccccc1)c1nc(-c2ccc(Br)cc2)no1" ?
result: > 7.00

query: // pKi lookup, key: "CCN(CC)CCCS(=O)(=O)N[C@H](CCc1ccccc1)c1nc(-c2c(Cl)cccc2Cl)no1"
result: > 7.00

query: Dear colleague, I am looking for the recorded pKi of the following molecule: "CCN(CC)CCCS(=O)(=O)N[C@H](CCc1ccccc1)c1nc(-c2ccccc2)no1"
result: > 7.00

query: Entry "CCN(CC)CCS(=O)(=O)N[C@H](CCc1ccccc1)c1nc(-c2ccccn2)no1" : reported pKi = ?
result: 6.30 to 7.00

query: Could you tell me which pKi is on file for "CCN(CC)CCS(=O)(=O)N[C@H](CCc1ccccc1)c1nc(-c2ncccc2C)no1" ?
result: 6.30 to 7.00

---

TARGET_OR_TEST_SYSTEM: GHS-R (Homo sapiens)
TEST: GHS-R antagonist activity (Ki) in a cell based assay
From the text: Cell-Based Activity Assays. For example, the ability of the compound to modulate accumulation of a second messenger signaling component downstream of GHS-R can be evaluated. For example, inositol phosphates (IP), as a result of Gq signaling in a mammalian cell, e.g., a Cos-7 cells. Other tissue culture cells, Xenopus oocytes, and primary cells can also be used. Phosphatidylinositol turnover assay. […]
READOUT_LABEL: Ki

CCN(CC)CCS(=O)(=O)N[C@H](CCc1ccccc1)c1nc(-c2c(C)cccc2C)no1; ≥ 1000 nM

query: Consider the compound "CCN(CC)CCCS(=O)(=O)N[C@H](CCc1ccccc1)c1nc(-c2cccc(C#N)c2)n[nH]1" and give its measured Ki.
result: < 100 nM

query: Report Ki for "CCN(CC)CCS(=O)(=O)N[C@H](CCc1ccccc1)c1nc(Cc2ccccc2C)no1" please.
result: 100 to 500 nM

query: What does the data say about its Ki? Entry: "CCN(CC)CCCS(=O)(=O)N[C@H](CCc1ccccc1)c1nc(-c2cccc3[nH]ccc23)n[nH]1"
result: < 100 nM

---

TARGET_OR_TEST_SYSTEM: GHS-R (Homo sapiens, UniProt Q92847)
Sequence (Q92847 whole entry, species assumed): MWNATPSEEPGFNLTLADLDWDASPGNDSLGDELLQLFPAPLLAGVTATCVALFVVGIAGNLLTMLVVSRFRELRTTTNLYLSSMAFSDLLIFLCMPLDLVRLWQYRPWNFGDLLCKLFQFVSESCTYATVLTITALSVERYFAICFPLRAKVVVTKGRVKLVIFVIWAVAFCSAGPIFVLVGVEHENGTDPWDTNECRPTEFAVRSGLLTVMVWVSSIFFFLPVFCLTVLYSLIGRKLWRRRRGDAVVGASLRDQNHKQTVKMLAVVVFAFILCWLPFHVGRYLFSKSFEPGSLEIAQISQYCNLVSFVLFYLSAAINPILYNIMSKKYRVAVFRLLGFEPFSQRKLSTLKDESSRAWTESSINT
TEST: GHS-R antagonist activity (Ki) in a cell based assay
Entries and their measured Ki follow.

CCN(CC)CCCS(=O)(=O)N[C@H](CCc1ccccc1)c1nc(C2CCCCC2)n[nH]1; < 100 nM
CCN(CC)CCCS(=O)(=O)N[C@H](CCc1ccccc1)c1nc(-c2ccsc2)n[nH]1; < 100 nM
CCN(CC)CCCS(=O)(=O)N[C@H](CCc1ccccc1)c1nc(-c2ccc3c(c2)OCCO3)n[nH]1; < 100 nM
CCN(CC)CCCS(=O)(=O)N[C@@H](Cc1ccccc1)c1nc(-c2ccc(OC)cc2)n[nH]1; < 100 nM
CCN(CC)CCCS(=O)(=O)N[C@H](CCc1ccccc1)c1nc(-c2cccc(SC)c2)n[nH]1; < 100 nM
CCN(CC)CCCS(=O)(=O)N[C@H](CCc1ccccc1)c1nc(-c2ccc(C#N)cc2)n[nH]1; < 100 nM
CCN(CC)CCCS(=O)(=O)N1CCC[C@H]1c1nc(Cc2ccc(Br)cc2)no1; 100 to 500 nM
CCN(CC)CCS(=O)(=O)N[C@H](CCc1ccccc1)c1nc(Cc2ccccc2Br)no1; < 100 nM

query: Query: Ki; subject: "CCN(CC)CCCS(=O)(=O)N[C@H](CCc1ccccc1)c1nc(Cc2ccc(OC)cc2)n[nH]1"
result: 100 to 500 nM

query: I'd like to know its Ki. The compound in question is "CCN(CC)CCS(=O)(=O)N[C@H](CCc1ccccc1)c1nc(Cc2cccc(F)c2)no1"
result: < 100 nM

query: // query Ki value for entry "CCN(CC)CCCS(=O)(=O)N[C@H](CCc1ccccc1)c1nc(Cc2ccc(F)cc2)n[nH]1"
result: < 100 nM

query: Name the recorded Ki for "CCN(CC)CCCS(=O)(=O)N[C@H](CCc1ccccc1)c1nc(-c2ccc(Cl)cc2Cl)n[nH]1" .
result: < 100 nM

query: Fill in: Ki of "CCN(CC)CCS(=O)(=O)N[C@H](CCc1ccccc1)c1nc(-c2cccc(Br)c2)no1" is ___
result: ≥ 1000 nM

query: Bench note: what Ki did "CCN(CC)CCS(=O)(=O)N[C@H](CCc1ccccc1)c1nc(-c2ccc(Br)cc2C)no1" show?
result: ≥ 1000 nM

query: I have this compound here, "CCN(CC)CCCS(=O)(=O)N[C@H](CCC(N)=O)c1nc(Cc2ccc(Br)cc2)no1" , and I need its recorded Ki.
result: 100 to 500 nM

query: Need Ki, item "CCN(CC)CCCS(=O)(=O)N[C@H](CCc1ccccc1)c1nc(-c2ccc([N+](=O)[O-])cc2)n[nH]1"
result: < 100 nM
